Kindly state solubility for each of the entries shown.
Experiment: In vitro solubility at was determined; pH=7
Assay type: ADME

Prompt line: solubility for CNc1nc2ccc(S(=O)(=O)N(CC(C)C)C[C@@H](O)[C@H](Cc3ccccc3)NC(=O)O[C@H]3CO[C@H]4OCC[C@H]43)cc2s1 ?
Response line: < 10 µg/mL

Prompt line: solubility for CC(C)CN(C[C@@H](O)[C@H](Cc1ccccc1)NC(=O)O[C@H]1CO[C@H]2OCC[C@H]21)S(=O)(=O)c1ccc2nc(NCCN(C)C)sc2c1 ?
Response line: 40 µg/mL

Prompt line: solubility for CC(C)CN(C[C@@H](O)[C@H](Cc1ccccc1)NC(=O)O[C@H]1CO[C@H]2OCC[C@H]21)S(=O)(=O)c1ccc2nc(N(C)CCCN(C)C)sc2c1 ?
Response line: 1180 µg/mL

Prompt line: solubility for CNc1nc2ccc(S(=O)(=O)N(CC(C)C)C[C@@H](O)[C@H](Cc3ccccc3)NC(=O)O[C@H]3CO[C@H]4OCC[C@H]43)cc2o1 ?
Response line: < 10 µg/mL

Prompt line: solubility for CC(C)CN(C[C@@H](O)[C@H](Cc1ccccc1)NC(=O)O[C@H]1CO[C@H]2OCC[C@H]21)S(=O)(=O)c1ccc2nc(N)sc2c1 ?
Response line: < 10 µg/mL

Prompt line: solubility for CC(C)CN(C[C@@H](O)[C@H](Cc1ccccc1)NC(=O)O[C@H]1CO[C@H]2OCC[C@H]21)S(=O)(=O)c1ccc2nc(NCCN3CCCC3)sc2c1 ?
Response line: < 10 µg/mL

###

Tested on: Human immunodeficiency virus 1
Test: Protease inhibitory activity against HIV-1 r13363 mutant strain was determined
Format: functional, organism-based
endpointName: pEC50

Prompt line: pEC50 for CC(C)c1nc(CN(C)C(=O)N[C@H](C(=O)N[C@@H](Cc2ccccc2)C[C@H](O)[C@H](Cc2ccccc2)NC(=O)OCc2cncs2)C(C)C)cs1 ?
Response line: 4.89

Prompt line: pEC50 for CC(C)CN(C[C@@H](O)[C@H](Cc1ccccc1)NC(=O)O[C@H]1CO[C@H]2OCC[C@H]21)S(=O)(=O)c1ccc2nc(N(C)CCCN3CCCC3)oc2c1 ?
Response line: 5.22

Prompt line: pEC50 for Cc1cccc(C)c1OCC(=O)N[C@@H](Cc1ccccc1)[C@@H](O)C[C@H](Cc1ccccc1)NC(=O)[C@H](C(C)C)N1CCCNC1=O ?
Response line: 6.28

Prompt line: pEC50 for COC(=O)N[C@H](C(=O)N[C@@H](Cc1ccccc1)[C@@H](O)CN(Cc1ccc(-c2ccccn2)cc1)NC(=O)[C@@H](NC(=O)OC)C(C)(C)C)C(C)(C)C ?
Response line: 7.23

Prompt line: pEC50 for CC(C)CN(C[C@@H](O)[C@H](Cc1ccccc1)NC(=O)O[C@H]1CO[C@H]2OCC[C@H]21)S(=O)(=O)c1ccc2ncsc2c1 ?
Response line: 6.57

Prompt line: pEC50 for CC(C)CN(C[C@@H](O)[C@H](Cc1ccccc1)NC(=O)O[C@H]1CO[C@H]2OCC[C@H]21)S(=O)(=O)c1ccc2nc(NCCN(C)C)sc2c1 ?
Response line: 7.67

Prompt line: pEC50 for CCC[C@@]1(CCc2ccccc2)CC(O)=C([C@H](CC)c2cccc(NS(=O)(=O)c3ccc(C(F)(F)F)cn3)c2)C(=O)O1 ?
Response line: 6.15

Prompt line: pEC50 for Cc1c(O)cccc1C(=O)N[C@@H](CSc1ccccc1)[C@H](O)CN1C[C@H]2CCCC[C@H]2C[C@H]1C(=O)NC(C)(C)C ?
Response line: 5.82

Prompt line: pEC50 for CC(C)(C)NC(=O)[C@@H]1CN(Cc2cccnc2)CCN1C[C@@H](O)C[C@@H](Cc1ccccc1)C(=O)N[C@H]1c2ccccc2C[C@H]1O.O ?
Response line: 6.39

Prompt line: pEC50 for CC(C)CN(C[C@@H](O)[C@H](Cc1ccccc1)NC(=O)O[C@H]1CO[C@H]2OCC[C@H]21)S(=O)(=O)c1ccc2nc(N(C)C)sc2c1 ?
Response line: 5.36

Prompt line: pEC50 for CNc1nc2ccc(S(=O)(=O)N(CC(C)C)C[C@@H](O)[C@H](Cc3ccccc3)NC(=O)O[C@H]3CO[C@H]4OCC[C@H]43)cc2o1 ?
Response line: 7.5

Prompt line: pEC50 for CNCCNc1nc2ccc(S(=O)(=O)N(CC(C)C)C[C@@H](O)[C@H](Cc3ccccc3)NC(=O)O[C@H]3CO[C@H]4OCC[C@H]43)cc2s1 ?
Response line: 6.11

###

Kindly state half-life for each of the entries shown.
Test: In vivo half life value in dog was determined at a dosage of 20 mg/kg
Assay type: ADME, organism-based, Canis lupus familiaris
Design: dose 20 mg/kg
State just the number; it will be interpreted in h.

Prompt line: half-life for CC(C)CN(C[C@@H](O)[C@H](Cc1ccccc1)NC(=O)O[C@H]1CO[C@H]2OCC[C@H]21)S(=O)(=O)c1ccc2nc(NCCN3CCCC3)sc2c1 ?
Response line: 1.66

Prompt line: half-life for CC(C)CN(C[C@@H](O)[C@H](Cc1ccccc1)NC(=O)O[C@H]1CO[C@H]2OCC[C@H]21)S(=O)(=O)c1ccc2nc(N(C)CCCN(C)C)sc2c1 ?
Response line: 2.9

Prompt line: half-life for CNc1nc2ccc(S(=O)(=O)N(CC(C)C)C[C@@H](O)[C@H](Cc3ccccc3)NC(=O)O[C@H]3CO[C@H]4OCC[C@H]43)cc2o1 ?
Response line: 0.9

###

Test: In vitro solubility at was determined; pH=5
Assay type: ADME
endpointName: solubility

Prompt line: solubility for CNc1nc2ccc(S(=O)(=O)N(CC(C)C)C[C@@H](O)[C@H](Cc3ccccc3)NC(=O)O[C@H]3CO[C@H]4OCC[C@H]43)cc2o1 ?
Response line: 10 µg/mL

Prompt line: solubility for CC(C)CN(C[C@@H](O)[C@H](Cc1ccccc1)NC(=O)O[C@H]1CO[C@H]2OCC[C@H]21)S(=O)(=O)c1ccc2nc(NCCN3CCCC3)sc2c1 ?
Response line: 90 µg/mL

Prompt line: solubility for CNc1nc2ccc(S(=O)(=O)N(CC(C)C)C[C@@H](O)[C@H](Cc3ccccc3)NC(=O)O[C@H]3CO[C@H]4OCC[C@H]43)cc2s1 ?
Response line: < 10 µg/mL

Prompt line: solubility for CC(C)CN(C[C@@H](O)[C@H](Cc1ccccc1)NC(=O)O[C@H]1CO[C@H]2OCC[C@H]21)S(=O)(=O)c1ccc2nc(N(C)CCCN(C)C)sc2c1 ?
Response line: 1640 µg/mL

Prompt line: solubility for CC(C)CN(C[C@@H](O)[C@H](Cc1ccccc1)NC(=O)O[C@H]1CO[C@H]2OCC[C@H]21)S(=O)(=O)c1ccc2nc(N)sc2c1 ?
Response line: < 10 µg/mL

Prompt line: solubility for CC(C)CN(C[C@@H](O)[C@H](Cc1ccccc1)NC(=O)O[C@H]1CO[C@H]2OCC[C@H]21)S(=O)(=O)c1ccc2nc(NCCN(C)C)sc2c1 ?
Response line: 410 µg/mL

###

Test system: Human immunodeficiency virus 1
Test: Protease inhibitory activity against HIV-1 r13363 mutant strain was determined
Assay type: functional, organism-based
Kindly state pEC50 for each of the entries shown.
API note: the answer field is a bare number with no unit suffix.

Prompt line: pEC50 for CC(C)CN(C[C@@H](O)[C@H](Cc1ccccc1)NC(=O)O[C@H]1CO[C@H]2OCC[C@H]21)S(=O)(=O)c1ccc2nc(N(C)CCCN3CCCC3)sc2c1 ?
Response line: 5.52

Prompt line: pEC50 for CC(C)CN(C[C@@H](O)[C@H](Cc1ccccc1)NC(=O)O[C@H]1CO[C@H]2OCC[C@H]21)S(=O)(=O)c1ccc2nc(N)sc2c1 ?
Response line: 7.9

Prompt line: pEC50 for CC(C)CN(C[C@@H](O)[C@H](Cc1ccccc1)NC(=O)O[C@H]1CO[C@H]2OCC[C@H]21)S(=O)(=O)c1ccc2nc(N)oc2c1 ?
Response line: 7.6

Prompt line: pEC50 for CC(C)CN(C[C@@H](O)[C@H](Cc1ccccc1)NC(=O)O[C@H]1CO[C@H]2OCC[C@H]21)S(=O)(=O)c1ccc2nc(N(C)CCCN(C)C)sc2c1 ?
Response line: 6.08

Prompt line: pEC50 for CC(C)CN(C[C@@H](O)[C@H](Cc1ccccc1)NC(=O)O[C@H]1CO[C@H]2OCC[C@H]21)S(=O)(=O)c1ccc2nc(NCCN3CCCC3)sc2c1 ?
Response line: 7.49

Prompt line: pEC50 for CC(C)CN(C[C@@H](O)[C@H](Cc1ccccc1)NC(=O)OC1CCOC1)S(=O)(=O)c1ccc(N)cc1 (single isomer, unassigned) ?
Response line: 4.95

Prompt line: pEC50 for CC(C)CN(C[C@@H](O)[C@H](Cc1ccccc1)NC(=O)O[C@H]1CO[C@H]2OCC[C@H]21)S(=O)(=O)c1ccc2nc(NCCN(C)C)oc2c1 ?
Response line: 6.7

Prompt line: pEC50 for CC(C)CN(C[C@@H](O)[C@H](Cc1ccccc1)NC(=O)O[C@H]1CO[C@H]2OCC[C@H]21)S(=O)(=O)c1ccc2nc(NCCN3CCCC3)oc2c1 ?
Response line: 6.88

Prompt line: pEC50 for CC(C)CN(C[C@@H](O)[C@H](Cc1ccccc1)NC(=O)O[C@H]1CO[C@H]2OCC[C@H]21)S(=O)(=O)c1ccc2nc(N(C)CCN3CCCC3)sc2c1 ?
Response line: 5.64

Prompt line: pEC50 for CC(C)CN(C[C@@H](O)[C@H](Cc1ccccc1)NC(=O)O[C@H]1CO[C@H]2OCC[C@H]21)S(=O)(=O)c1ccc2nc(N(C)C)oc2c1 ?
Response line: 5.38

Prompt line: pEC50 for CC(C)CN(C[C@@H](O)[C@H](Cc1ccccc1)NC(=O)O[C@H]1CO[C@H]2OCC[C@H]21)S(=O)(=O)c1ccc2nc(NCCCN(C)C)sc2c1 ?
Response line: 7.53

Prompt line: pEC50 for CC(C)CN(C[C@@H](O)[C@H](Cc1ccccc1)NC(=O)O[C@H]1CO[C@H]2OCC[C@H]21)S(=O)(=O)c1ccc2nc(N(C)CCN3CCCC3)oc2c1 ?
Response line: 5.85

Prompt line: pEC50 for CC(C)(C)NC(=O)[C@@H]1C[C@@H]2CCCC[C@@H]2CN1C[C@@H](O)[C@H](Cc1ccccc1)NC(=O)[C@H](CC(N)=O)NC(=O)c1ccc2ccccc2n1 ?
Response line: 7.54

Prompt line: pEC50 for CNc1nc2ccc(S(=O)(=O)N(CC(C)C)C[C@@H](O)[C@H](Cc3ccccc3)NC(=O)O[C@H]3CO[C@H]4OCC[C@H]43)cc2s1 ?
Response line: 7.81
